experiment: Toxicity in rat assessed as median lethal dose; details: in vivo, read-out: MLD
measure: LD50

Reported LD50 ( O=c1c2ccccc2[se]n1Cc1ccco1 ) = > 4600 mg/kg

====

test: Cytotoxicity against cat CRFK cells assessed as reduction of cell viability; type: toxicity, cell-based, Felis catus
measure: CC50

Solved entries (count: 4):
[[record]]
compound = "CC(C)C[C@H](NC(=O)OC1CCC(F)(F)CC1)C(=O)N[C@@H](C[C@@H]1CCNC1=O)C(O)S(=O)(=O)O (some centres undefined)"
reported_value = "> 100 µM"

[[record]]
compound = "CCCCC1CCC(OC(=O)N[C@@H](CC(C)C)C(=O)N[C@@H](C[C@@H]2CCNC2=O)C(O)S(=O)(=O)O)CC1 (some centres undefined)"
reported_value = "59.1 µM"

[[record]]
compound = "CC(C)C[C@H](NC(=O)OCc1ccccc1)C(=O)N[C@@H](C[C@@H]1CCNC1=O)C(O)S(=O)(=O)O (some centres undefined)"
reported_value = "> 200 µM"

[[record]]
compound = "O=C[C@H](C[C@@H]1CCNC1=O)NC(=O)[C@H](CC1CCCCC1)NC(=O)c1cc2ccccc2[nH]1"
reported_value = "> 100 µM"


Reported CC50 ( CCCC1CCC(OC(=O)N[C@@H](CC(C)C)C(=O)N[C@H](C=O)C[C@@H]2CCNC2=O)CC1 (some centres undefined) ) = > 100 µM

Reported CC50 ( CC(C)C[C@H](NC(=O)OC1CCCCC1)C(=O)N[C@H](C=O)C[C@@H]1CCNC1=O ) = > 100 µM

Reported CC50 ( CC(C)C[C@H](NC(=O)OCc1ccccc1)C(=O)N[C@H](C=O)C[C@@H]1CCNC1=O ) = > 100 µM

Reported CC50 ( CCCCC1CCC(OC(=O)N[C@@H](CC(C)C)C(=O)N[C@H](C=O)C[C@@H]2CCNC2=O)CC1 (some centres undefined) ) = 63.3 µM

Reported CC50 ( CC(C)C[C@H](NC(=O)OCC1CCC(F)(F)CC1)C(=O)N[C@@H](C[C@@H]1CCNC1=O)C(O)S(=O)(=O)O (some centres undefined) ) = > 100 µM

====

test: Cytotoxicity against dog MDCK cells assessed as reduction in cell viability by neutral red uptake assay; assay type: toxicity, cell-based, Canis lupus familiaris
Peptide text beside a SMILES is read from it.
measure: CC50

[[record]]
compound = "CCC[C@H](NC(=O)[C@H](CC(C)C)NC(=O)OCc1ccccc1)C(=O)C(=O)NCc1ccccn1"
measure = "CC50"
reported_value = "> 100 µM"


Please look at the following compound next.
Reported CC50 ( CSCC[C@@H](C=O)NC(=O)[C@H](CC(C)C)NC(=O)[C@H](CC(C)C)NC(C)=O (Ac-Leu-Leu-Met-aldehyde) ) = > 100 µM

====

experiment: Cytotoxicity against African green monkey Vero E6 cells assessed as reduction of cell viability by CCK8 assay; type: toxicity, cell-based, Vero C1008; conditions: chlorocebus sabaeus
measure: CC50

Reported CC50 ( C[C@@H](OC(C)(C)C)[C@H](NC(=O)OCc1ccccc1)C(=O)N[C@@H](CC1CCCCC1)C(=O)N[C@H](C=O)C[C@@H]1CCNC1=O ) = > 200 µM

====

test: Binding affinity to SARS CoV N-terminal his-tagged Main protease using Dabcyl-KTSAVLQSGFRKME-Edan peptide as substrate by fluorescence based analysis; set-up: species or system Severe acute respiratory syndrome-related coronavirus
pKi values for the molecules below.
Reminder that pKi means the negative base-10 logarithm of the concentration expressed in mol/L.

[[record]]
smiles = "O=C(On1nnc2ccccc21)c1cc2ccccc2[nH]1"
reported_value = 7.91

[[record]]
smiles = "CCN(CC)c1ccc(C(=O)On2nnc3ccccc32)cc1"
reported_value = 7.95

[[record]]
smiles = "Nc1ccccc1C(=O)On1nnc2ccccc21"
reported_value = 7.71


Please look at the following molecule next.
Reported pKi ( CN(C)c1ccc(C(=O)On2nnc3ccccc32)cc1 ) = 7.76

====

molecular target: Replicase polyprotein 1ab (Severe acute respiratory syndrome coronavirus 2, UniProt P0DTD1); test: Inhibition of SARS CoV-2 Main protease using MCA-AVLQSGFR-Lys(DNP)-Lys-NH2 peptide as substrate by fluorescence based analysis
measure: IC50 (µM)
Only the number, expressed in µM, is required.

Reported IC50 ( CC(C)Cn1sc2ccccc2c1=O ) = 0.48

Reported IC50 ( O=c1c2ccccc2[se]n1CCO ) = 0.65

Reported IC50 ( C=CCn1sc2ccccc2c1=O ) = 0.63

Reported IC50 ( COC(=O)c1ccc(-n2sc3ccccc3c2=O)cc1 ) = 0.36

Reported IC50 ( O=c1c2ccccc2[se]n1CCN1CCOCC1 ) = 0.24

Reported IC50 ( O=c1c2ccccc2sn1CCO ) = 0.41

Reported IC50 ( O=c1c2ccccc2[se]n1Cc1ccco1 ) = 0.074

====

target: Replicase polyprotein 1ab (Severe acute respiratory syndrome coronavirus 2, UniProt P0DTD1); test: Inhibition of SARS CoV-2 Main protease incubated for 10 min by FRET assay
pIC50: −log10 of the molar value.
Tag: MET if measured pIC50 is not below 7, NOT MET if it is.

Worked set:
[[record]]
smiles = "CC1(C)[C@@H]2[C@@H](C(=O)N[C@H](C=O)C[C@@H]3CCNC3=O)N(C(=O)COc3ccc(Br)c(Cl)c3)C[C@@H]21"
group = "MET"

[[record]]
smiles = "O=C[C@H](C[C@@H]1CCNC1=O)NC(=O)[C@@H]1[C@H]2CCC[C@H]2CN1C(=O)CCc1ccc(F)c(F)c1"
group = "MET"


Prompt: Hi, just wondering whether COc1ccc(OCC(=O)N2C[C@@H]3CCC[C@@H]3[C@H]2C(=O)N[C@H](C=O)C[C@@H]2CCNC2=O)cc1 shows pIC50 of 7 or higher.
Completion: MET

Prompt: Hi, just wondering whether COc1ccc(OCC(=O)N2C[C@H]3[C@@H]([C@H]2C(=O)N[C@H](C=O)C[C@@H]2CCNC2=O)C3(C)C)cc1OC shows pIC50 of 7 or higher.
Completion: MET

Prompt: Hi, just wondering whether COc1ccc(OCC(=O)N2C[C@H]3[C@@H]([C@H]2C(=O)N[C@H](C=O)C[C@@H]2CCNC2=O)C3(C)C)cc1F shows pIC50 of 7 or higher.
Completion: MET

Prompt: Hi, just wondering whether CC1(C)[C@@H]2[C@@H](C(=O)N[C@H](C=O)C[C@@H]3CCNC3=O)N(C(=O)COc3ccc(Br)cc3Cl)C[C@@H]21 shows pIC50 of 7 or higher.
Completion: MET

Prompt: Hi, just wondering whether CC1(C)[C@@H]2[C@@H](C(=O)N[C@H](C=O)C[C@@H]3CCNC3=O)N(C(=O)COc3ccc4ccccc4c3)C[C@@H]21 shows pIC50 of 7 or higher.
Completion: MET

Prompt: Hi, just wondering whether CC1(C)[C@@H]2[C@@H](C(=O)N[C@H](C=O)C[C@@H]3CCNC3=O)N(C(=O)c3ccc4ccccc4c3)C[C@@H]21 shows pIC50 of 7 or higher.
Completion: NOT MET

Prompt: Hi, just wondering whether CC1(C)[C@@H]2[C@@H](C(=O)N[C@H](C=O)C[C@@H]3CCNC3=O)N(C(=O)COc3cccc(C(F)(F)F)c3)C[C@@H]21 shows pIC50 of 7 or higher.
Completion: MET

Prompt: Hi, just wondering whether CC1(C)[C@@H]2[C@@H](C(=O)N[C@H](C=O)C[C@@H]3CCNC3=O)N(C(=O)COc3ccc(Cl)c(Cl)c3)C[C@@H]21 shows pIC50 of 7 or higher.
Completion: MET

====

experiment: AUC in Sprague-Dawley rat at 10 mg/kg, iv measured upto 24 hrs by LC-MS/MS analysis; assay type: ADME, organism-based; parameters: time < 24 hrs, dose 10 mg/kg, route iv; details: in vivo
measure: AUC at 24 h (ng·h/mL)
Only the number, expressed in ng·h/mL, is required.

Reported AUC at 24 h ( O=C[C@H](C[C@@H]1CCNC1=O)NC(=O)[C@H](Cc1cccc(F)c1)NC(=O)c1cc2ccccc2[nH]1 ) = 41500

====

molecular target: Replicase polyprotein 1ab (Severe acute respiratory syndrome coronavirus 2); experiment: Inhibition of SARS CoV-2 Main protease using MCA-AVLQSGFR-Lys(DNP)-Lys-NH2 peptide as substrate by fluorescence based analysis
Friendly reminder: IC50 below 400 nM is yes (1), at or above is no (0).

Worked set:
[[record]]
smiles = "O=C(NCc1ccco1)c1ccc(-n2sc3ccccc3c2=O)cc1"
group = "yes (1)"

[[record]]
smiles = "O=c1[nH]sc2ccccc12"
group = "no (0)"

[[record]]
smiles = "CCCCNC(=O)c1ccc(-n2sc3ccccc3c2=O)cc1"
group = "no (0)"

[[record]]
smiles = "CCOC(=O)/C=C/[C@H](C[C@@H]1CCNC1=O)NC(=O)[C@H](CC(C)C)NC(=O)[C@@H](NC(=O)OCc1ccccc1)[C@@H](C)OC(C)(C)C"
group = "yes (1)"

[[record]]
smiles = "CCCNC(=O)c1ccc(-n2sc3ccccc3c2=O)cc1"
group = "yes (1)"


# next molecule below
Prompt: API: query returns whether the molecule falls strictly under 400 nM in IC50. Query: O=C(Oc1cncc(Cl)c1)c1cccs1
Completion: yes (1)
